TEST DETAILS: soluble fraction after stress (log2 fold change); higher = more stays soluble; pooled small domains, quantitative proteomics
CONDITIONS: stress: 50 degC
If the reported soluble fraction (log2) equals or exceeds -0.2, assign YES. If not, assign NO.

Record excerpt, results attached:
[[record]]
biosequence = "HMSLLLTPREASVWASEYLGKKVTSNNIIYLLNYGKIANHSTDLKENLIDKNELKIYYDSTIKSQKH"
classification = "NO"

[[record]]
biosequence = "HMERDIATKHEVNRTVEAYSDIVKTLNLPSHKINLVEISFFNILKRSKPSPRENSILLGLAQKIKLHLEKK"
classification = "NO"

[[record]]
biosequence = "HMQEDKVRKLTEMGFAEDQAREALRKHDWDETMALNSL"
classification = "YES"


Confirm if soluble fraction (log2) reported for the sequence HMQGEKDDLWREVLDNPDAWWDNRERKNAPGGNPRYPDFKHKDSQTPLWIESRDTPQWAIDALL is -0.2 or above.
YES

Confirm if soluble fraction (log2) reported for the sequence HMKAMIIVMKPGADMATISKVLKTIETNGFKPHLSKGEETTVIGVIGDERKLNPDIFSTLEGVERIVPVA is -0.2 or above.
YES

Confirm if soluble fraction (log2) reported for the sequence HMFDENVKLIENEYDVSIISRGSELKVMGDVENVDKAARALRSMLAMINKGESLTEQNVRYVLTLVNEGNE is -0.2 or above.
NO

Confirm if soluble fraction (log2) reported for the sequence HMGIKYTNQRVEILNFLKDNLSHPTVDDVYEGVKKKLTRISKATVYQNLKFLASKGLIQEVNIKGVSRFEP is -0.2 or above.
NO

Confirm if soluble fraction (log2) reported for the sequence HMDVQGFVMDLDKPLDKEPIVEGFELKLEDSLTLVAAVNKDKSINSLFDELSKLGIKVKSMRNPP is -0.2 or above.
YES

Confirm if soluble fraction (log2) reported for the sequence HMGPNPLTEREQEILQLARTGEPVARLAKRLFLSPGTVRNHLSSAIGKLGAANRVEAAQFATERGW is -0.2 or above.
YES

Confirm if soluble fraction (log2) reported for the sequence HMAEPYDERKVMEQMIPKGKNTIVAHLGHLKDHGETGYLQEALSYLRERESELGFDLKEVRALVHN is -0.2 or above.
YES

Confirm if soluble fraction (log2) reported for the sequence HMKNKVTVPKVEGMDKEEAIQALNEVGLGYKAVMQSSDSVAEGKVISQGTAAGKKVDKNTQIIITVSGG is -0.2 or above.
YES

Confirm if soluble fraction (log2) reported for the sequence HMQPVLSDAEVNDLKNIAGGERGYNQLMDWAGNNLTAQDAKSYDDVLATGNKAAISFAIKALMGQYEDAN is -0.2 or above.
YES

Confirm if soluble fraction (log2) reported for the sequence HMQDLAKRWVEEFGDLLYKYTLPRVSDSGIAKDLVQETFLAAWRNIDNFKGEASEKNWLFTILKNKIIDH is -0.2 or above.
NO

Confirm if soluble fraction (log2) reported for the sequence HMAKMPSIIIMKDGVIRTSELEQIERDENWLNEEMKKQHIDNPEDVFLAEFWDGKVNFILQDGKIK is -0.2 or above.
YES

Confirm if soluble fraction (log2) reported for the sequence HMEVVVPEDLDAALQQASRAQSFFSSLSYTHKKEYVAWINEAKRAETRAMRIQKTITMLESGQRGH is -0.2 or above.
NO

Confirm if soluble fraction (log2) reported for the sequence HMDFTHFTLKQDGKFAGSSNLLHQAVIAAARLAAETGKPVTVMAHVRGGGTRKAVFNPDGTNDKIWN is -0.2 or above.
NO

Confirm if soluble fraction (log2) reported for the sequence HMDNEYDKVYQAALSKLEGYPRSSITTAVIKDVVAQTIKYFEIKNFGYEDTIINQLQSAFTVKSSS is -0.2 or above.
YES
